Would you kindly list CYP1A2 mRNA fold change vs vehicle at 0.1 μM for each of these compounds?
tested on: CYP1A2; assay: CYP induction, CYP1A2 mRNA expression; type: in vitro ADME; conditions: human; @ 0.1 μM; mean fold shift compared to vehicle; >2-fold indicates induction; read-out: Fold shift in mRNA expr. (CYP 1A2)
// return a plain number; no unit text

Q: Query the reported CYP1A2 mRNA fold change vs vehicle at 0.1 μM for CYP1A2; item: C[C@@H](O)c1nc2cnc3[nH]ccc3c2n1[C@H]1CC[C@H](C#N)CC1 [Example 641 of WO2011086053]
A: 0.9

Q: Any idea what CYP1A2 mRNA fold change vs vehicle at 0.1 μM came out for CNc1cc2c(cn1)nc([C@@H](C)O)n2[C@H]1CC[C@H](CC#N)CC1 [Example 3] on CYP1A2?
A: 0.8

====

molecular target: JAK1 (Homo sapiens (Human)); test: JAK1 kinase assay (HTRF); format: biochemical; settings: ATP at Km (7 μM)
Sequence (P23458 850-1154): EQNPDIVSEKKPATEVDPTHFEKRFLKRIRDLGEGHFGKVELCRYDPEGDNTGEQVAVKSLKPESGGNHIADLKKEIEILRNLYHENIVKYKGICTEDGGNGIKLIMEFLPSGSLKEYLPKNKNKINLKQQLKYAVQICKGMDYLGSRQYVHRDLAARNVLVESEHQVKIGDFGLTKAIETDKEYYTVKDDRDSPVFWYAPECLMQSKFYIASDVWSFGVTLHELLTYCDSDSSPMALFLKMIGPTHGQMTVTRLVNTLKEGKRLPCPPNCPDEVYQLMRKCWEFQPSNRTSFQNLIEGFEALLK
EC50 strictly less than 10 nM = 1. Otherwise -1.

Q: Please determine if CNc1cc2c(cn1)nc([C@@H](C)O)n2[C@H]1CC[C@@H](CC#N)CC1 [Example 7] is below 10 nM in terms of EC50.
A: -1

Q: Just wondering, is EC50 of CNc1cc2c(cn1)nc([C@@H](C)O)n2[C@H]1CC[C@H](CC#N)CC1 [Example 3] below 10 nM?
A: 1

Q: Does the reported EC50 of the following compound sit strictly below 10 nM? CNc1cc2c(cn1)nc(C(C)O)n2[C@H]1CC[C@@H](CC#N)CC1 (some centres unmarked) [Example 6]
A: -1

Q: Item CNc1cc2c(cn1)nc(C(C)O)n2[C@H]1CC[C@H](CC#N)CC1 (some centres unmarked) [Example 1] : EC50 beneath 10 nM, strictly?
A: -1

Q: Field: below-cutoff. Rule: recorded EC50 strictly less than 10 nM. Subject: C[C@@H](O)c1nc2cnc3[nH]ccc3c2n1[C@H]1CC[C@H](CC#N)CC1 [Example 644 of WO2011086053]
A: 1

====

Please respond with reported CYP1A2 mRNA fold change vs vehicle at 10 μM for every item in the list.
system: CYP1A2; test: CYP induction, CYP1A2 mRNA expression; type: in vitro ADME; conditions: human; @ 10 μM; mean fold shift compared to vehicle; read-out: Fold shift in mRNA expr. (CYP 1A2)
Please give only the number in your answer, with no unit.

Q: Any idea what CYP1A2 mRNA fold change vs vehicle at 10 μM was measured for C[C@@H](O)c1nc2cnc3[nH]ccc3c2n1[C@H]1CC[C@H](C#N)CC1 [Example 641 of WO2011086053] ?
A: 0.9

Q: Look up CYP1A2 mRNA fold change vs vehicle at 10 μM: CNc1cc2c(cn1)nc([C@@H](C)O)n2[C@H]1CC[C@H](CC#N)CC1 [Example 3]
A: 0.8

====

Parameter measured: IC50

Q: Record lookup: for CYP2C9 (Homo sapiens (Human), UniProt P11712), what IC50 belongs to CNc1cc2c(cn1)nc([C@@H](C)O)n2[C@H]1CC[C@H](CC#N)CC1 [Example 3] ?
A: > 50 µM

Q: Record C[C@@H](O)c1nc2cnc3[nH]ccc3c2n1[C@H]1CC[C@H](CC#N)CC1 [Example 644 of WO2011086053] : what is its IC50 with CYP2C9 (Homo sapiens (Human), UniProt P11712)?
A: > 25 µM

Q: For the record C[C@@H](O)c1nc2cnc3[nH]ccc3c2n1[C@H]1CC[C@H](C#N)CC1 [Example 641 of WO2011086053] , what value of IC50 is listed for CYP2C9 (Homo sapiens (Human), UniProt P11712)?
A: > 25 µM
